- Tested on: monoclonal antibody 2A11
- TEST SUMMARY: Indirect radioimmunoassay: 2A11 cross reactivity with solid phase synthetic peptides
- Assay type: binding, mouse
- ASSAY CONDITIONS: peptides solid phased at 500 ng/well; 2A11 10 μg/ml; detection with rabbit anti mouse IgG and 125I-protein A
MEASUREMENT LABEL: CPM 125I-PROTEIN A BOUND (CPM)
Response body: numeric value in CPM, unit text excluded.

[
  {
    "SUBSTANCE": "KASSININ",
    "UOM": "CPM",
    "CPM 125I-PROTEIN A BOUND": 37
  }
]

Note: attention shifts to another entry.
Query :: Query CPM 125I-PROTEIN A BOUND on monoclonal antibody 2A11 for `PHYSALAEMIN`
Result :: 28

====

- Test system: monoclonal antibody 2A11
- TEST SUMMARY: Indirect radioimmunoassay: 2A11 cross reactivity with solid phase synthetic peptides
- Type: binding, mouse
- ASSAY CONDITIONS: cpm minus BSA background relative to bombesin; peptides solid phased at 500 ng/well
- Protocol: Peptides (all purchased from Peninsula Laboratories) were adsorbed to 96 well polyvinyl chloride microtiter plates (Dynatech) by adding 0.05 ml of a 10 μg/ml peptide in phosphate buffered saline (PBS) for 1 hr., washing in PBS, then blocking with a 1% bovine serum albumin (BSA) PBS solution. […] Percent cross reactivity was determined as follows: […]
Ends that are not written are not given here.
MEASUREMENT LABEL: % 125I-PROTEIN A BOUND (% cross reactivity with 2A11) (%)
The reply should be a number in %, with the unit left off.

[
  {
    "SUBSTANCE": "GRP^14-27: fragment 14-27 of gastrin releasing peptide (MYPRGNHWAVGHLM; ends and bridges not checked; UniProt P07492 37-50, looked up, fragment)",
    "OBS VALUE": 102
  }
]

Lab note: next substance to report on.
Query :: Write down the reported % 125I-PROTEIN A BOUND (% cross reactivity with 2A11) of gastrin-releasing peptide [GASTRIN RELEASING PEPTIDE (GRP)] , test system: monoclonal antibody 2A11.
Result :: 102
